Multi-source literature compilation: IC50 on Cyclin-dependent kinase 2 (Homo sapiens, UniProt P24941).
Answers are plain numbers, in nM.

>>> resultnumber("NS(=O)(=O)c1ccc(Nc2nc(Nc3ccc(S(N)(=O)=O)cc3)c3cn[nH]c3n2)cc1")
21
>>> resultnumber("N#Cc1cc2cnc(NC3CCN(S(=O)(=O)C4CC4)CC3)nc2n(C2CCCC2)c1=O")
5.5

Note: attention shifts to another entry.
API: value(readout=IC50, system=Cyclin-dependent kinase 2 (Homo sapiens, UniProt P24941)) for record N#Cc1sc2cnc(Nc3ccc(N4CCNCC4)nc3)cc2c1C1CCCC1 13.3

* * *

Below are pIC50 values for Cyclin-dependent kinase 2 (Homo sapiens, UniProt P24941) collected from several publications.
pIC50: −log10 of the molar value.

# example entries with known answers
>>> result("C[C@H](O)CNC(=O)c1ccc(C(=O)Nc2ccc(-n3cncn3)cc2)s1")
"≤ 4.40"
>>> result("N#Cc1ccc(-n2cnc3cc(OCCOCCO)c(NC4CCOCC4)nc32)nc1")
"< 5.18"

For the 5 molecules below, give their pIC50 values.
1. COc1cccc(-c2cnc(Nc3ccccc3)o2)c1
2. Cc1cc(Cn2ccnc2)ccc1NC(=O)c1ccc(C(=O)Nc2ccc(-n3cncn3)c(F)c2)s1
3. COc1ccc(NC(=O)c2ccc(C(=O)Nc3ccc(-n4cncn4)cc3)s2)c(C)c1
4. CS(=O)(=O)N1CCC(Nc2ncc3cc(C#N)c(=O)n([C@H]4C[C@@H]5CC[C@H]4C5)c3n2)CC1
5. COc1cccc(-c2cnc(Nc3ccc(C(=O)N4CCN(C)CC4)cc3)o2)c1

1. > 6.00
2. ≥ 6.00
3. ≥ 6.00
4. 7.06
5. > 6.00
